Catalogue of percentage of EdU-negative values
System: MCF7
EXPERIMENTAL_DETAILS: percentage of EdU-negative (G0-arrested) nuclei per well, 72 h; higher = more G0 arrest;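 also: secreted proteins added to cultured cells, EdU pulse at the end, nuclei found by Hoechst imaging, EdU status from nuclear versus surrounding ring intensity ratio, PBS as neutral control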
CONDITION: protein concentration 0.0225 µM; reference: sequence is the full UniProt precursor, the tested protein was the secreted form or ectodomain
Give just the number in %; leave the unit off.

Record MNVLLGSVVIFATFVTLCNASCYFIPNEGVPGDSTRKCMDLKGNKHPINSEWQTDNCETCTCYETEISCCTLVSTPVGYDKDNCQRIFKKEDCKYIVVEKKDPKKTCSVSEWII , field percentage of EdU-negative: 25.8

Record MPAVFMLASSSALQCGRGVPRFPRTEVGAGHSVNEETKAEKVGNQTSVIPATSRQAALGTSWTQRRTQPLQERSHWHPRGNNASGMGGHRMFPGPLRGPAAQVLENECGSLGRAAEGRS [Q8N2X6] , field percentage of EdU-negative: 24.5

Record MLDWRLASAHFILAVTLTLWSSGKVLSVDVTTTEAFDSGVIDVQSTPTVREEKSATDLTAKLLLLDELVSLENDVIETKKKRSFSGFGSPLDRLSAGSVDHKGKQRKVVDHPKRRFGIPMDRIGRNRLSNSRG , field percentage of EdU-negative: 23.9

Record MAHRPPSPALASVLLALLLSGAARAAEIVGGHEAQPHSRPYMASLQMRGNPGSHFCGGTLIHPSFVLTAAHCLRDIPQRLVNVVLGAHNVRTQEPTQQHFSVAQVFLNNYDAENKLNDVLLIQLSSPANLSASVATVQLPQQDQPVPHGTQCLAMGWGRVGAHDPPAQVLQELNVTVVTFFCRPHNICTFVPRRKAGICFGDSGGPLICDGIIQGIDSFVIWGCATRLFPDFFTRVALYVDWIRSTLRRVEAKGRP , field percentage of EdU-negative: 25.4

* * *

Tested on: MCF7
EXPERIMENTAL_DETAILS: percentage of EdU-negative (G0-arrested) nuclei per well, 72 h; higher = more G0 arrest
CONDITION: protein concentration 0.225 µM; reference: sequence is the full UniProt precursor, the tested protein was the secreted form or ectodomain
Catalogue of percentage of EdU-negative values
Give just the number in %; leave the unit off.

MKLHYVAVLTLAILMFLTWLPESLSCNKALCASDVSKCLIQELCQCRPGEGNCSCCKECMLCLGALWDECCDCVGMCNPRNYSDTPPTSKSTVEELHEPIPSLFRALTEGDTQLNWNIVSFPVAEELSHHENLVSFLETVNQPHHQNVSVPSNNVHAPYSSDKEHMCTVVYFDDCMSIHQCKISCESMGASKYRWFHNACCECIGPECIDYGSKTVKCMNCMF [Q9GZX9] | 28.8

Record MKLNLVQIFFMLLMLLLGLGMGLGLGLHMATAVLEESDQPLNEFWSSDSQDKAEATEEGDGTQTTETLVLSNKEVVQPGWPEDPILGEDEVGGNKMLRASALFQSNKDYLRLDQTDRECNDMMAHKMKEPSQSCIAQYAFIHEDLNTVKAVCNSPVIACELKGGKCHKSSRPFDLTLCELSQPDQVTPNCNYLTSVIKKHIIITCNDMKRQLPTGQ [Q5GAN6] , field percentage of EdU-negative: 25.2

Record MMCPLWRLLIFLGLLALPLAPHKQPWPGLAQAHRDNKSTLARIIAQGLIKHNAESRIQNIHFGDRLNASAQVAPGLVGWLISGRKHQQQQESSINITNIQLDCGGIQISFHKEWFSANISLEFDLELRPSFDNNIVKMCAHMSIVVEFWLEKDEFGRRDLVIGKCDAEPSSVHVAILTEAIPPKMNQFLYNLKENLQKVLPHMVESQVCPLIGEILGQLDVKLLKSLIEQEAAHEPTHHETSQPSACQAGESPS [Q9BQP9] , field percentage of EdU-negative: 26.8

* * *

Test system: hTERT-HMEC
EXPERIMENTAL_DETAILS: percentage of EdU-negative (G0-arrested) nuclei per well, 72 h; higher = more G0 arrest
CONDITION: protein concentration 0.357143 µM; reference: sequence is the full UniProt precursor, the tested protein was the secreted form or ectodomain
REPORTED_PROPERTY: percentage of EdU-negative (%)
Give just the number in %; leave the unit off.

MAAAWTVVLVTLVLGLAVAGPVPTSKPTTTGKGCHIGRFKSLSPQELASFKKARDALEESLKLKNWSCSSPVFPGNWDLRLLQVRERPVALEAELALTLKVLEAAAGPALEDVLDQPLHTLHHILSQLQACIQPQPTAGPRPRGRLHHWLHRLQEAPKKESAGCLEASVTFNLFRLLTRDLKYVADGNLCLRTSTHPEST [Q8IU54] | 20.5

In the following, a different sequence is considered.
Item MELWGAYLLLCLFSLLTQVTTEPPTQKPKKIVNAKKDVVNTKMFEELKSRLDTLAQEVALLKEQQALQTVCLKGTKVHMKCFLAFTQTKTFHEASEDCISRGGTLGTPQTGSENDALYEYLRQSVGNEAEIWLGLNDMAAEGTWVDMTGARIAYKNWETEITAQPDGGKTENCAVLSGAANGKWFDKRCRDQLPYICQFGIV ; assay system hTERT-HMEC; percentage of EdU-negative reported as 25.4

* * *

Test system: hTERT-HMEC
EXPERIMENTAL_DETAILS: percentage of EdU-negative (G0-arrested) nuclei per well, 72 h; higher = more G0 arrest
CONDITION: protein concentration 0.225 µM; reference: sequence is the full UniProt precursor, the tested protein was the secreted form or ectodomain
percentage of EdU-negative below 6% gives NOT MET; percentage of EdU-negative at or above it gives MET.

Record excerpt, results attached:
MKMRFLGLVVCLVLWTLHSEGSGGKLTAVDPETNMNVSEIISYWGFPSEEYLVETEDGYILCLNRIPHGRKNHSDKGPKPVVFLQHGLLADSSNWVTNLANSSLGFILADAGFDVWMGNSRGNTWSRKHKTLSVSQDEFWAFSYDEMAKYDLPASINFILNKTGQEQVYYVGHSQGTTIGFIAFSQIPELAKRIKMFFALGPVASVAFCTSPMAKLGRLPDHLIKDLFGDKEFLPQSAFLKWLGTHVCTHVILKELCGNLCFLLCGFNERNLNMSRVDVYTTHSPAGTSVQNMLHWSQAVKFQKFQAFDWGSSAKNYFHYNQSYPPTYNVKDMLVPTAVWSGGHDWLADVYDVNILLTQITNLVFHESIPEWEHLDFIWGLDAPWRLYNKIINLMRKYQ | NOT MET
MLSGRLVLGLVSMAGRVCLCQGSAGSGAIGPVEAAIRTKLEEALSPEVLELRNESGGHAVPPGSETHFRVAVVSSRFEGLSPLQRHRLVHAALAEELGGPVHALAIQARTPAQWRENSQLDTSPPCLGGNKKTLGTP [Q9Y3E2] | NOT MET
MTGLCGYSAPDMRGLRLIMIPVELLLCYLLLHPVDATSYGKQTNVLMHFPLSLESQTPSSDPLSCQFLHPKSLPGFSHMAPLPKFLVSLALRNALEEAGCQADVWALQLQLYRQGGVNATQVLIQHLRGLQKGRSTERNVSVEALASALQLLAREQQSTGRVGRSLPTEDCENEKEQAVHNVVQLLPGVGTFYNLGTALYYATQNCLGKARERGRDGAIDLGYDLLMTMAGMSGGPMGLAISAALKPALRSGVQQLIQYYQDQKDANISQPETTKEGLRAISDVSDLEETTTLASFISEVVSSAPYWGWAIIKSYDLDPGAGSLEI | MET
MASRWAVQLLLVAAWSMGCGEALKCYTCKEPMTSASCRTITRCKPEDTACMTTLVTVEAEYPFNQSPVVTRSCSSSCVATDPDSIGAAHLIFCCFRDLCNSEL | NOT MET
MQAPGRGPLGLRLMMPGRRGALREPGGCGSCLGVALALLLLLLPACCPVRAQNDTEPIVLEGKCLVVCDSSPSADGAVTSSLGISVRSGSAKVAFSATRSTNHEPSEMSNRTMTIYFDQVLVNIGNHFDLASSIFVAPRKGIYSFSFHVVKVYNRQTIQVSLMQNGYPVISAFAGDQDVTREAASNGVLLLMEREDKVHLKLERGNLMGGWKYSTFSGFLVFPL [Q8IUK8] | NOT MET

Task item: Test whether the sequence MSSFSTTTVSFLLLLAFQLLGQTRANPMYNAVSNADLMDFKNLLDHLEEKMPLEDEVVPPQVLSEPNEEAGAALSPLPEVPPWTGEVSPAQRDGGALGRGPWDSSDRSALLKSKLRALLTAPRSLRRSSCFGGRMDRIGAQSGLGCNSFRY records percentage of EdU-negative of 6% or higher.
Reply: MET

* * *

Catalogue of percentage of EdU-negative values
Tested on: hTERT-HMEC
EXPERIMENTAL_DETAILS: percentage of EdU-negative (G0-arrested) nuclei per well, 72 h; higher = more G0 arrest
CONDITION: protein concentration 0.225 µM; reference: sequence is the full UniProt precursor, the tested protein was the secreted form or ectodomain
Give just the number in %; leave the unit off.

Example cases with answers are listed next.
MPPRGPASELLLLRLLLLGAATAAPLAPRPSKEELTRCLAEVVTEVLTVGQVQRGPCTALLHKELCGTEPHGCASTEEKGLLLGDFKKQEAGKMRSSQEVRDEEEEEVAERTHKSEVQEQAIRMQGHRQLHQEEDEEEEKEERKRGPMETFEDLWQRHLENGGDLQKRVAEKASDKETAQFQAEEKGVRVLGGDRSLWQGAERGGGERREDLPHHHHHHHQPEAEPRQEKEEASEREEKEVEQLEHLRDELKKVTETLGEQLRREG [I3L3R5] | 7.54
MEPLRLLILLFVTELSGAHNTTVFQGVAGQSLQVSCPYDSMKHWGRRKAWCRQLGEKGPCQRVVSTHNLWLLSFLRRWNGSTAITDDTLGGTLTITLRNLQPHDAGLYQCQSLHGSEADTLRKVLVEVLADPLDHRDAGDLWFPGESESFEDAHVEHSISRSLLEGEIPFPPTSILLLLACIFLIKILAASALWAAAWHGQKPGTHPPSELDCGHDPGYQLQTLPGLRDT [Q9NZC2] | 7.25

In the following, a different sequence is considered.
Record MVATKTFALLLLSLFLAVGLGEKKEGHFSALPSLPVGSHAKVSSPQPRGPRYAEGTFISDYSIAMDKIHQQDFVNWLLAQKGKKNDWKHNITQREARALELASQANRKEEEAVEPQSSPAKNPSDEDLLRDLLIQELLACLLDQTNLCRLRSR , field percentage of EdU-negative: 6.12

Reference source for all entries: the supplement of paper PMC11316812
